- TARGET_OF_ASSAY: Progesterone receptor (Homo sapiens)
- EXPERIMENT_SUMMARY: Antagonist activity at human PRB expressed in CHO cells assessed as inhibition of Org 2058 induced-transactivation relative to Org 31710
- Format: functional, cell-based
Consider the cut-off 50%. If the recorded Efficacy is strictly smaller, the label is criterion met; if not, the label is criterion not met.

1. C[C@]12C[C@H](c3ccc(-c4cccnc4)cc3)C3=C4CCC(=O)C=C4CC[C@H]3[C@@H]1CCC21CCCC1=O (stereo partly drawn) = criterion not met
2. C[C@@H]1C[C@H]2[C@@H]3CCC4=CC(=O)CCC4=C3[C@@H](c3ccc(-c4cccnc4)cc3)C[C@]2(C)[C@H]1C(=O)C1CC1 = criterion met
3. CC[C@@H]1C[C@H]2[C@@H]3CCC4=CC(=O)CCC4=C3[C@@H](c3ccc(-c4ccc(OC)nc4)cc3)C[C@]2(C)[C@H]1C(=O)C1CC1 = criterion not met
4. C=C[C@@H]1C[C@H]2[C@@H]3CCC4=CC(=O)CCC4=C3[C@@H](c3ccc(-c4cccnc4)cc3)C[C@]2(C)[C@H]1C(=O)C1CC1 = criterion met
5. COc1ccc(-c2ccc([C@H]3C[C@]4(C)[C@@H](C(=O)C5CC5)CC[C@H]4[C@@H]4CCC5=CC(=O)CCC5=C43)cc2)cn1 = criterion not met
6. COC[C@]1(OC)CC[C@H]2[C@@H]3CCC4=CC(=O)CCC4=C3[C@@H](c3ccc(/C=N/O)cc3)C[C@@]21C = criterion not met
7. C=C[C@@H]1C[C@H]2[C@@H]3CCC4=CC(=O)CCC4=C3[C@@H](c3ccc(-c4ccc(OC)nc4)cc3)C[C@]2(C)[C@H]1C(=O)C1CC1 = criterion met
8. CC(=O)O[C@]1(C(C)=O)CC[C@H]2[C@@H]3CCC4=CC(=O)CCC4=C3[C@@H](c3ccc(N(C)C)cc3)C[C@@]21C [ULIPRISTAL ACETATE] = criterion not met
9. C[C@]12C[C@H](c3ccc(-c4cccnc4)cc3)C3=C4CCC(=O)C=C4CC[C@H]3[C@@H]1CC[C@]2(C)C(=O)C1CC1 = criterion not met
10. C[C@]12C[C@H](c3ccc(-c4cccnc4)cc3)C3=C4CCC(=O)C=C4CC[C@H]3[C@@H]1CC[C@@H]2C(=O)C1CC1 = criterion not met
11. C[C@@H]1C[C@H]2[C@@H]3CCC4=CC(=O)CCC4=C3[C@@H](c3ccc(-c4ccccn4)cc3)C[C@]2(C)[C@H]1C(=O)C1CC1 = criterion met

###

IC50 listing for selected molecules.
- TARGET_OF_ASSAY: Progesterone receptor (Homo sapiens, UniProt P06401)
- Sequence (P06401 whole entry): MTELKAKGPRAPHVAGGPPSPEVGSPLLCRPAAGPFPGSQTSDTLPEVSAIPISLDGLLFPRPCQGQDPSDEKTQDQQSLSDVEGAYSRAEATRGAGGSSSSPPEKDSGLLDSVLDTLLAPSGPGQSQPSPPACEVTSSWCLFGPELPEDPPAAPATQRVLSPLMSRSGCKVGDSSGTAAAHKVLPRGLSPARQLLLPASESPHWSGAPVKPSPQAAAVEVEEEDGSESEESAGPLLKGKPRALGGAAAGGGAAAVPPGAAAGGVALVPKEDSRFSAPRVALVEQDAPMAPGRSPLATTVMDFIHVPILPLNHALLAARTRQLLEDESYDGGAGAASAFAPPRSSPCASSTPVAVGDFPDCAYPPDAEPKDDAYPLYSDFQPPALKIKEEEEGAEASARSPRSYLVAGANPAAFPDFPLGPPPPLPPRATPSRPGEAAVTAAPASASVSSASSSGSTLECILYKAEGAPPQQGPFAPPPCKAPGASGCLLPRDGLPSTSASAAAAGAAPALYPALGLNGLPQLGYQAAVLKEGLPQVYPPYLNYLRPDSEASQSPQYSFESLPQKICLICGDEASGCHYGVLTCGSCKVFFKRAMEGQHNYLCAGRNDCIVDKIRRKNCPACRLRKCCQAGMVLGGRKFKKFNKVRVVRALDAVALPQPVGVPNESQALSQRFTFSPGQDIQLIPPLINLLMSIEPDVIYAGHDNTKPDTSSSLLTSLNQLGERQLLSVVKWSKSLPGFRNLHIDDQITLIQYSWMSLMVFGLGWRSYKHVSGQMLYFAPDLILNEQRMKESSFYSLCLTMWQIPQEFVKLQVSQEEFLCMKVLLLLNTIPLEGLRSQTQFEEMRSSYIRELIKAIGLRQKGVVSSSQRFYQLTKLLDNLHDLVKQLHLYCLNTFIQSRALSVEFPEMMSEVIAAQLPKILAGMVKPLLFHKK
- EXPERIMENT_SUMMARY: Antagonist activity at human PRB expressed in CHO cells assessed as inhibition of Org 2058 induced-transactivation
- Type: functional, cell-based
REPORTED_ENDPOINT: IC50 (nM)

1) C[C@]12C[C@H](c3ccc(-c4cccnc4)cc3)C3=C4CCC(=O)C=C4CC[C@H]3[C@@H]1CCC21CCCC1=O (some centres undefined) = 0.33
2) C[C@@H]1C[C@H]2[C@@H]3CCC4=CC(=O)CCC4=C3[C@@H](c3ccc(-c4ccncc4)cc3)C[C@]2(C)[C@H]1C(=O)C1CC1 = 2.5
3) COC[C@]1(OC)CC[C@H]2[C@@H]3CCC4=CC(=O)CCC4=C3[C@@H](c3ccc(/C=N/O)cc3)C[C@@]21C = 0.2
4) COc1ccc(-c2ccc([C@H]3C[C@@]4(C)[C@@H](C[C@@H](C)[C@@H]4C(=O)C4CC4)[C@@H]4CCC5=CC(=O)CCC5=C43)cc2)cn1 = 0.63
